# target of assay: human IL-21R expressed on cells (human, UniProt Q9HBE5 20-538)
# Sequence (Q9HBE5 20-538 limits assumed): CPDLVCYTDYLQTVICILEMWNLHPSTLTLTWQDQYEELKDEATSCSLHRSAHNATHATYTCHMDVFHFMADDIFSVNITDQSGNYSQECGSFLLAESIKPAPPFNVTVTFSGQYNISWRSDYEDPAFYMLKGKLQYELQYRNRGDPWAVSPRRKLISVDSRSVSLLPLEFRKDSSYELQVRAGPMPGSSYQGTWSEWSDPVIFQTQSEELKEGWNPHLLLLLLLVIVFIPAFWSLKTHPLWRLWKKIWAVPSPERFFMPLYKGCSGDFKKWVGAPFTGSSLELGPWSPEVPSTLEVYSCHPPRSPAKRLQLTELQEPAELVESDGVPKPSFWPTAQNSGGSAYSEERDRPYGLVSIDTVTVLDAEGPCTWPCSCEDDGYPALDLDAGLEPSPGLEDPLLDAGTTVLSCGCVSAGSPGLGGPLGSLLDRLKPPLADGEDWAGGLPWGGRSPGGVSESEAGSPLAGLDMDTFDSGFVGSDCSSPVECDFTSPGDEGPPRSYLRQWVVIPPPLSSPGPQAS
# assay info: cell-based or functional assay
measurement kind: IC50, Human IL-21R-BaF3 Neutralization Assay (nM)
// units = nM; emit number, no label

Record excerpt, results attached:
{"binder": "scFv L6 (scFv) scFv: QVQLQESGPGLVKTSETLSLTCAVSGYSISSGYYWGWIRQPPGKGLEWIGSISHTGNTYYNPPLKSRVTISVDTSKNQFSLKLSSVTAADTAVYYCARGGGISRPEYWGKGTLVTVSSGGGGSGGGGSGGGGSALSSELTQDPPVSVALGQTVTLTCQGDSLRTYYASWYQQKSGQAPILLLYGKHKRPSGIPDRFSGSTSGDTASLTITGAQAEDEADYYCMSRSIWGNPHVLFGGGTQLTVL", "recorded value": 5.9}
{"binder": "scFv L15 (scFv) scFv: QVQLQESGPGLVKTSETLSLTCAVSGYSISSGYYWGWIRQPPGKGLEWIGSISHTGNTYYNPPLKSRVTISVDTSKNQFSLKLSSVTAADTAVYYCARGGGISRPEYWGKGTLVTVSSGGGGSGGGGSGGGGSALSSELTQDPPVSVALGQTVTLTCQGDSLRTYYASWYQQKSGQAPILLLYGKHKRPSGIPDRFSGSTSGDTASLTITGAQAEDEADYYCSTRAIHGNPHVLFGGGTQLTVL", "recorded value": 3.3}
{"binder": "scFv L8 (scFv) scFv: QVQLQESGPGLVKTSETLSLTCAVSGYSISSGYYWGWIRQPPGKGLEWIGSISHTGNTYYNPPLKSRVTISVDTSKNQFSLKLSSVTAADTAVYYCARGGGISRPEYWGKGTLVTVSSGGGGSGGGGSGGGGSALSSELTQDPPVSVALGQTVTLTCQGDSLRTYYASWYQQKSGQAPILLLYGKHKRPSGIPDRFSGSTSGDTASLTITGAQAEDEADYYCTTRSTQGNPHVLFGGGTQLTVL", "recorded value": 4.1}

# input binder: scFv L5 (scFv) scFv: QVQLQESGPGLVKTSETLSLTCAVSGYSISSGYYWGWIRQPPGKGLEWIGSISHTGNTYYNPPLKSRVTISVDTSKNQFSLKLSSVTAADTAVYYCARGGGISRPEYWGKGTLVTVSSGGGGSGGGGSGGGGSALSSELTQDPPVSVALGQTVTLTCQGDSLRTYYASWYQQKSGQAPILLLYGKHKRPSGIPDRFSGSTSGDTASLTITGAQAEDEADYYCASRSSKGNPHVLFGGGTQLTVL ; wanted: its IC50, Human IL-21R-BaF3 Neutralization Assay
2.1

All figures here come from patent US20120276102A1.
